The entries below come with measured kcat/Km values attached.
- Tested on: Bradyrhizobium japonicum
- protocol-details: Ratio of Kcat to Km for Bradyrhizobium japonicum beta-Lactamase BJP-1
State just the number; it will be interpreted in ×10⁴ /M/s.

# cpd-smiles, metric, numeric-value
records = [
    ("CO/N=C(\\C(=O)N[C@@H]1C(=O)N2C(C(=O)O)=C(CSc3nc(=O)c(O)nn3C)CS[C@H]12)c1csc(N)n1", "kcat/Km", 9.6),
]

// returns reported kcat/Km for input C[C@@H](O)[C@H]1C(=O)N2C(C(=O)O)=C(SCCNC=N)C[C@H]12 6

Need kcat/Km of CO[C@@]1(NC(=O)Cc2cccs2)C(=O)N2C(C(=O)O)=C(COC(N)=O)CS[C@@H]21 , thanks. 7.1

Quick one: kcat/Km for CC1(C)S[C@@H]2[C@H](NC(=O)[C@H](N)c3ccccc3)C(=O)N2[C@H]1C(=O)O ? 1.9

Need kcat/Km, item CCN1CCN(C(=O)N[C@@H](C(=O)N[C@@H]2C(=O)N3[C@@H]2SC(C)(C)[C@@H]3C(=O)O)c2ccccc2)C(=O)C1=O 6.7

---

- System: Pectobacterium atrosepticum
- protocol-details: Activity of Erwinia carotovora subsp. atroseptica DSM 30184 beta-lactamase CAR-1
metric: kcat (s⁻¹)
Reply numerically in s⁻¹, unit not repeated.

Worked cases, answers included:
# cpd-smiles, numeric-value
measured = [
    ("CC(=O)OCC1=C(C(=O)O)N2C(=O)[C@@H](NC(=O)Cc3cccs3)[C@H]2SC1", 240),
    ("C[C@@H](O)[C@H]1C(=O)N2C(C(=O)O)=C([C@H]3CCCO3)S[C@H]12", 5),
]

Okay, now this compound:
Which kcat is reported for this compound? CCN1CCN(C(=O)N[C@@H](C(=O)N[C@@H]2C(=O)N3[C@@H]2SC(C)(C)[C@@H]3C(=O)O)c2ccccc2)C(=O)C1=O 9

---

- System: Pectobacterium atrosepticum
- protocol-details: Ratio of Kcat to Km for Erwinia carotovora subsp. atroseptica DSM 30184 beta-Lactamase CAR-1
metric: kcat/Km

# cpd-smiles, kcat/Km
rows = [
    ("CC1(C)S[C@@H]2[C@H](NC(=O)[C@H](C(=O)O)c3ccsc3)C(=O)N2[C@H]1C(=O)O", "1.3 ×10⁴ /M/s"),
    ("CC1(C)S[C@@H]2[C@H](NC(=O)Cc3ccccc3)C(=O)N2[C@H]1C(=O)O", "9.2 ×10³ /M/s"),
    ("CO[C@@]1(NC(=O)Cc2cccs2)C(=O)N2C(C(=O)O)=C(COC(N)=O)CS[C@@H]21", "4.7 ×10³ /M/s"),
    ("CCN1CCN(C(=O)N[C@@H](C(=O)N[C@@H]2C(=O)N3[C@@H]2SC(C)(C)[C@@H]3C(=O)O)c2ccccc2)C(=O)C1=O", "2.6 ×10⁴ /M/s"),
    ("CC(C)(O/N=C(\\C(=O)N[C@@H]1C(=O)N2C(C(=O)[O-])=C(C[n+]3ccccc3)CS[C@H]12)c1csc(N)n1)C(=O)O", "2.9 ×10⁵ /M/s"),
]

Data request, read-out kcat/Km, for CC(=O)OCC1=C(C(=O)O)N2C(=O)[C@@H](NC(=O)Cc3cccs3)[C@H]2SC1 1.2 ×10⁶ /M/s

Recorded kcat/Km for CC1(C)S[C@@H]2[C@H](NC(=O)[C@H](N)c3ccccc3)C(=O)N2[C@H]1C(=O)O , please? 3.2 ×10³ /M/s

Name the recorded kcat/Km for C[C@@H](O)[C@H]1C(=O)N2C(C(=O)O)=C([C@H]3CCCO3)S[C@H]12 . 4.4 ×10⁴ /M/s
